experimental.protocol: TOX21_p53_BLA_p3_viability: Viability Assessment in the Tox21 HCT-116 p53 Agonism Beta-lactamase Assay, Phase 3 (AID 2283593);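 also: cells exposed to compound for 16 h before reading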
Inconclusive results are not listed. Active and inactive are the calls of the source. The calls were made as follows: active = hit-call score of the fitted dose curve at least 0.9, where 1 is the maximum; inconclusive = response in the unintended direction; inactive = score below 0.9.
property: outcome

Solved entries:
c1ccc2c(c1)sc1ccccc12
inactive
O=NN1CCCC1
inactive
O=[N+]([O-])c1ccccc1
inactive
CCCN(CCC)c1c([N+](=O)[O-])cc(C(C)C)cc1[N+](=O)[O-]
inactive
CCOc1ccc(C(C)(C)COCc2cccc(Oc3ccccc3)c2)cc1
inactive

Lab note: next compound to report on.
Given CC(C)Nc1ccc(Nc2ccccc2)cc1 , respond with its outcome. inactive

----------
Read-out: CD40, CD40 (gene 958)
experimental.protocol: BSK_LPS_CD40: BioMAP Diversity Plus: LPS Assay for CD40 Biomarker Activity (AID 2283076)
assay.setup: primary human HUVEC with PBMC; actives raise or lower the signal
Activity calls are given as the source filed them. The calls were made as follows: active = hit-call score of the fitted dose curve at least 0.9, where 1 is the maximum; inactive = score below 0.9.
Form entry, call: pick from y = active, n = inactive

Which outcome was entered for the compound O=P1(N(CCCl)CCCl)NCCCO1 (stereo not drawn) in this test? n

Please indicate how the test categorized N#Cc1c(-c2ccc(Cl)cc2)[nH]c(C(F)(F)F)c1Br . y

Any idea what this test logged for FC(F)(F)C(F)(C(F)(F)F)C(F)(F)C(F)(F)CC1CO1 (stereo not drawn) ? n

Call for entry [N-]=[N+]=[N-] : n

Per the assay record, what outcome was assigned to COP(=O)(O)OC ? n

Recorded test call requested for ClC(Cl)=C(c1ccc(Cl)cc1)c1ccccc1Cl y

# fetch the recorded call for c1ccc2c(c1)sc1ccccc12 here n

Entry CCCN(CCC)c1c([N+](=O)[O-])cc(C(C)C)cc1[N+](=O)[O-] : call = ? y

How did this test come out for Cc1ccc2c(c1N)C(=O)c1ccccc1C2=O ? n

Status in this test for O=C(O)C1C(C(=O)O)C2(Cl)C(Cl)=C(Cl)C1(Cl)C2(Cl)Cl (stereo not drawn) ? n

Given COP(=O)(CCC(=O)NCO)OC , state the outcome it received in this test. n

Hey, what did the test say about CC(C)(C)c1ccc(O)cc1 ? n

# lookup: test call for OCC(F)(F)OC(F)(F)C(F)(F)OC(F)(F)CO n

Returns: the outcome recorded for CC(O)C(F)(F)C(F)(F)F (stereo not drawn) in this assay. n

Give the logged outcome of this assay for the following compound: Nc1cc2c3c(c1)C(c1ccccc1)=N[C@@H](NC(=O)c1cccnc1)C(=O)N3CC2 n

Called result for CCCCC(CC)COC(=O)c1c(Br)c(Br)c(Br)c(Br)c1C(=O)OCC(CC)CCCC (stereo not drawn) n

Recorded call for CCOP(=S)(S)OCC ? n

Check the results log: what was the call for NC(=O)C(F)(F)C(F)(F)F ? n

Per the records of this test, what outcome belongs to O=C(O)C(F)(F)OC(F)(F)C(F)(F)OC(F)(F)F ? n

What is the recorded call for this compound in the test? c1ccc2c(c1)Nc1ccccc1S2 n

Hi, do you know how CCOP(=S)(OCC)SCS(=O)(=O)CC came out in this test? n

Could you please tell me the result logged for O=S(=O)(F)C(F)(F)C(F)(F)C(F)(F)C(F)(F)C(F)(F)C(F)(F)C(F)(F)C(F)(F)F in this assay? n

Hi, sorry to bother you, what did the test record for CCN(CC)c1ccccc1 ? n

Status in this test for Cc1c([N+](=O)[O-])cc2c(c1[N+](=O)[O-])C(C)(C)CC2(C)C ? y

What did the test return for N#Cc1cc([N+](=O)[O-])ccc1N ? n

I'd appreciate the recorded outcome for OCC1CO1 (stereo not drawn) from this test. n

Lab log entry: CC(Cl)CN(C)C (stereo not drawn) — outcome as called in the assay? n

Please let me know the test result on file for CCOP(=S)(OCC)SCSCC . n

----------
experimental.protocol: Tanguay_ZF_120hpf_ActivityScore_legacy: (Legacy) Oregon State University Tanguay Lab 120 Hour Post-fertilization zebrafish Assay Score for Activity (AID 2283742);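 as to AC50: dechorionated Tropical 5D wild-type zebrafish embryos held singly per well; static exposure from 6 hpf until 120 hpf at 28 °C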
Calls of active or inactive are those of the source. Rule for the calls: active = hit-call score of the fitted dose curve at least 0.9, where 1 is the maximum; inconclusive = response in the unintended direction; inactive = score below 0.9.
property: AC50

Known AC50 results, listed for orientation:
O=[N+]([O-])c1ccc(Cl)c(Cl)c1
inactive
CC(Cc1ccc(OCC(=O)O)cc1)NCC(O)c1csc(C(F)(F)F)n1 (configuration not stated)
inactive
Cc1ccc(N)cc1N
9.21 nM (active)
c1cc2c3c(cccc3c1)CC2
inactive
ClC1=C(Cl)C2(Cl)C3C(Cl)C(Cl)CC3C1(Cl)C2(Cl)Cl (configuration not stated)
inactive
ClC(Cl)c1ccccc1
inactive

Proceeding to the next compound to report its AC50.
Give the reported value of AC50 for this record: Nc1cc2c3c(c1)C(c1ccccc1)=N[C@@H](NC(=O)c1cccnc1)C(=O)N3CC2 inactive

----------
experimental.protocol: CCTE_Shafer_MEA_dev_network_spike_number: CCTE's Neural Network Formation Assay for Number of Network Spikes, Shafer Lab (AID 2284048);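 also: synchronized bursts across electrodes counted on days 5 7 9 12 and integrated as AUC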
Active and inactive are the calls of the source. How the source made its calls: active means hit-call score of the fitted dose curve at least 0.9, where 1 is the maximum; inactive means score below 0.9.
// classify into YES = active, NO = inactive

Could you kindly confirm the outcome this assay logged for CCC1(c2ccccc2)C(=O)N=C(O)NC1=O (stereo unspecified) ? NO

What classification did O=C(O)C1C(C(=O)O)C2(Cl)C(Cl)=C(Cl)C1(Cl)C2(Cl)Cl (stereo unspecified) end up with in this test? NO

Identify the outcome logged in this assay for the molecule shown: O=C(O)C=CC(F)(C(F)(F)F)C(F)(F)F NO

So what was the verdict on CCCCC(CC)COP(=O)(Oc1ccccc1)Oc1ccccc1 (stereo unspecified) in this test? NO

Field: outcome | Entry: OCC(F)(F)OC(F)(F)C(F)(F)OC(F)(F)C(F)(F)OC(F)(F)CO NO

Could you kindly confirm the outcome this assay logged for ClC1=C(Cl)C2(Cl)C3C(Cl)C(Cl)CC3C1(Cl)C2(Cl)Cl (stereo unspecified) ? YES

Identify the outcome logged in this assay for the molecule shown: O=P(Oc1ccccc1)(Oc1ccccc1)Oc1ccccc1 NO

Just curious, what result did O=S(=O)(c1ccc(O)cc1)c1ccc(O)cc1 get here? NO

// return assay outcome for OCC(F)(F)OC(F)(F)C(F)(F)OC(F)(F)CO NO

Which outcome was assigned to O=C(O)C(F)(F)OC(F)(F)C(F)(F)OC(F)(F)C(=O)O in this test? NO

Test call for this molecule, please: c1cc2c3c(cccc3c1)CC2 NO

Which outcome was entered for the molecule OCC(F)(F)OC(F)(F)C(F)(F)OC(F)(F)C(F)(F)OC(F)(F)F in this test? NO

Per the assay record, what outcome was assigned to O=P1(N(CCCl)CCCl)NCCCO1 (stereo unspecified) ? NO

Can you look up the reported call for CC(O)C(F)(F)C(F)(F)F (stereo unspecified) for me? NO

Outcome? CO/N=C(/C(=O)OC)c1ccccc1COc1ccccc1C YES

# lookup: test call for C=CC(=O)OCC(F)(F)C(F)F NO

----------
Read-out: Tissue plasminogen activator (tPA), PLAT (gene 5327)
experimental.protocol: BSK_BE3C_tPA: BioMAP Diversity Plus: BE3C Assay for Tissue plasminogen activator (tPA) Biomarker Activity (AID 2283041);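 also: tPA level quantified by ELISA one day after compound addition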
assay.setup: primary human bronchial epithelial cells; actives raise or lower the signal
Calls of active or inactive are those of the source. The calls were made as follows: active = hit-call score of the fitted dose curve at least 0.9, where 1 is the maximum; inactive = score below 0.9.
property: outcome

OCC(F)(F)OC(F)(F)C(F)(F)OC(F)(F)C(F)(F)OC(F)(F)CO
inactive
NC(=O)C(F)(F)C(F)(F)F
inactive
CCOP(=S)(OCC)SCn1nnc2ccccc2c1=O
inactive

----------
Read-out: Interferon-gamma inducible Protein 10 (IP10), CXCL10 (gene 3627)
experimental.protocol: BSK_KF3CT_IP10: BioMAP Diversity Plus: KF3CT Assay for Interferon-gamma inducible Protein 10 (IP10) Biomarker Activity (AID 2283068)
assay.setup: primary human keratinocytes with fibroblasts; actives raise or lower the signal
Procedure: BSK_KF3CT is a cell-based, multiplexed-readout assay that uses keratinocytes and foreskin fibroblasts, a human skin primary cell co-culture, with measurements taken at 24 hours after chemical dosing in a 96-well plate.BSK_KF3CT_IP10 is an assay component measured in the BSK_KF3CT assay. It measures IP-10 antibody related to regulation of gene expression using ELISA technology.Data from the assay component BSK_KF3CT_IP10 was analyzed into 1 assay endpoint. […]
Calls of active or inactive are those of the source. The calls were made as follows: active = hit-call score of the fitted dose curve at least 0.9, where 1 is the maximum; inactive = score below 0.9.
Please reply with one of these outcomes: active, inactive

What did this assay record as the result for [N-]=[N+]=[N-] ? inactive

GET /call?item= CC(Cl)CN(C)C (stereo not given) returns the recorded outcome of this test. inactive

# lookup: test call for O=C(O)C(F)(F)C(F)(F)C(=O)O inactive

Recorded test call requested for CCNc1nc(Cl)nc(NC(C)(C)C)n1 inactive

Test call, this compound: Cc1ccc([N+](=O)[O-])cc1C inactive

Tell me the recorded outcome of this test for Cc1ccc(N)cc1N . inactive

Hi, do you know how O=c1ssc(Cl)c1Cl came out in this test? active

Look up the recorded call for O=C(O)C(F)(OC(F)(F)C(F)(F)C(F)(F)F)C(F)(F)F (stereo not given) in this test. inactive

What was the test verdict on CCCCN(CCCC)SN(C)C(=O)Oc1cccc2c1OC(C)(C)C2 ? inactive

Just curious, what result did CCCCC(CC)COP(=O)(Oc1ccccc1)Oc1ccccc1 (stereo not given) get here? inactive

GET /call?item= Cc1cccc(N)c1 returns the recorded outcome of this test. inactive

What did this assay record as the result for O=S(=O)(F)C(F)(F)C(F)(F)C(F)(F)C(F)(F)C(F)(F)C(F)(F)C(F)(F)C(F)(F)F ? inactive

Dear colleague, could you share the recorded outcome for CCOP(=S)(Oc1ccc([N+](=O)[O-])cc1)c1ccccc1 (stereo not given) when you have a moment? inactive

Hello, I am checking results. What call was entered for Cc1c([N+](=O)[O-])cc2c(c1[N+](=O)[O-])C(C)(C)CC2(C)C ? inactive

How was Nc1ccc2ccccc2c1 classified in this test? inactive

How was CC(C)(C)c1ccc(O)cc1 classified in this test? inactive

What did the test return for CCCCCCCc1ccc(O)cc1 ? active

Which result was noted for this compound in the test: CCCCOCCOP(=O)(OCCOCCCC)OCCOCCCC inactive

Each compound tested received a call. Report the one for c1ccc2c(c1)Nc1ccccc1S2 . inactive

Status in this test for COCCOCCO ? inactive
